Molecular target: GDP-bound KRAS wild-type protein (Homo sapiens, UniProt P01116)
Sequence (P01116 whole entry): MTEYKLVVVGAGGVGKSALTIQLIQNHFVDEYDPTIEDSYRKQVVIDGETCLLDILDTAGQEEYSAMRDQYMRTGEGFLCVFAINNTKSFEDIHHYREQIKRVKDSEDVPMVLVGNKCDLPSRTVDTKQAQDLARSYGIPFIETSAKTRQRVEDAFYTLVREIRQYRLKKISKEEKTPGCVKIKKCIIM
Assay: Binding to KRAS by surface plasmon resonance (SPR), Single Cycle Kinetics
Conditions: SPR, Single Cycle Kinetics, GDP-bound KRAS wild-type protein; read-out: KRAS KD
Parameter: pKd. Scope: all listed entries.
# pKd is unitless: minus log10 of the molar concentration; print number only

Some solved cases for reference:
CCO[C@@H]1C[C@H]2C(=O)N(C)C3(CCC3)C(=O)N(C)[C@@H](C3CCCC3)C(=O)N(C)[C@H](C(=O)N(C)C)CC(=O)N(C)[C@@H](CC)C(=O)N[C@@H]([C@@H](C)CC)C(=O)N3CCC[C@H]3C(=O)N(C)[C@H]3C/C=C\CCN(C3=O)[C@@H](Cc3ccc(C)cc3)C(=O)N(C)CC(=O)N[C@@H](CCc3cc(F)c(C(F)(F)F)c(F)c3)C(=O)N2C1 :: 10.29
CC[C@H](C)[C@@H]1NC(=O)[C@H](CC)N(C)C(=O)C[C@@H](C(=O)N(C)C)N(C)C(=O)[C@H](C2CCCC2)N(C)C(=O)C2(CCC2)NC(=O)[C@@H]2CCCN2C(=O)[C@H](CCc2cc(C)c(Cl)c(C)c2)NC(=O)CN(C)C(=O)[C@H](Cc2ccc(C(F)(F)F)cc2)N2CC/C=C\C[C@@H](C2=O)N(C)C(=O)CN(C)C1=O :: 8.96
CCC[C@H]1C(=O)N[C@@H](CC(C)C)C(=O)N(CC)CC(=O)N(C)[C@H]2C/C=C\CCN(C2=O)[C@@H](Cc2ccc(C)cc2)C(=O)N(C)CC(=O)N[C@@H](CCc2cc(F)c(C(F)(F)F)c(F)c2)C(=O)N2C[C@H](OCC)C[C@H]2C(=O)NC2(CC(C)(C)C2)C(=O)N(C)[C@@H](C2CCCC2)C(=O)N(C)[C@H](C(=O)N(C)C)CC(=O)N1C :: 8.54
CCC[C@H]1C(=O)N[C@@H]([C@@H](C)CC)C(=O)N(C)CC(=O)N(C)[C@H]2C/C=C\CCN(C2=O)[C@@H](Cc2ccc(C)cc2)C(=O)N(C)CC(=O)N[C@@H](CCc2ccc(C(F)(F)F)c(OC)c2)C(=O)N2C[C@H](OCC)C[C@H]2C(=O)N(C)C2(CCC2)C(=O)N(C)[C@@H](C2CCCC2)C(=O)N(C)[C@H](C(=O)N2CCCCC2)CC(=O)N1C :: 10.01

Task: Please indicate pKd recorded for "CCCCO[C@H]1CCN2C(=O)[C@H](CCc3cc(F)c(C(F)(F)F)c(F)c3)NC(=O)CN(C)C(=O)[C@H](Cc3ccc(C(F)(F)F)cc3)N3CCCC[C@@H](C3=O)N(C)C(=O)CN(C)C(=O)[C@H]([C@@H](C)CC)NC(=O)[C@H](CC(C)C)N(C)C(=O)C[C@@H](C(=O)N3CCOCC3)N(C)C(=O)[C@H](C3CCCC3)N(C)C(=O)C3(CCC3)NC(=O)[C@H]12"
Result: 10.00

Task: Please indicate pKd recorded for "CC[C@H](C)[C@@H]1NC(=O)[C@H](C2CCC2)N(C)C(=O)C[C@@H](C(=O)N(C)CC)N(C)C(=O)[C@H](C2CCCC2)N(C)C(=O)C2(CC(C)(C)C2)NC(=O)[C@@H]2C[C@H](C)CN2C(=O)[C@H](CCc2cc(F)c(C(F)(F)F)c(F)c2)NC(=O)CN(C)C(=O)[C@H](Cc2ccc(C(F)(F)F)cc2)N2CC/C=C\C[C@@H](C2=O)N(C)C(=O)CN(C)C1=O"
Result: 9.52
